Target: T1, human Claudin 18.2 (human, UniProt P56856-2 1-261)
T1 construct: whole, on cells
T1 sequence (looked up): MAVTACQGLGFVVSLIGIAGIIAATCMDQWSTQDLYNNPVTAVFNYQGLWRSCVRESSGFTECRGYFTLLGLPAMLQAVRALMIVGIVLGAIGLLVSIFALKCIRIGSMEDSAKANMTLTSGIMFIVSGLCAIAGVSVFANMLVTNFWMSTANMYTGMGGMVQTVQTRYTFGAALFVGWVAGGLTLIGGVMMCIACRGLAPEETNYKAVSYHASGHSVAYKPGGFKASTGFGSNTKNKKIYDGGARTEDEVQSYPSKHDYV
Assay: flow cytometry (iQue) on HEK293-Claudin 18.2 cells, chimeric IgG1
# key: entry, value: log10 EC50
Values reflect log10 of reported EC50 (nM).

[Q] So what's the measured log10 EC50 for this one? 9C9 (antibody, V domains shown, also called Clone 9C9) VH: EVQLKESGPGLVAPSQSLSITCTVSGFSLTNYGVSWIRQPPGKGLEWLGAIWAGGNTNYNSALMSRLSIRKDNSKSQVFLKMNSLQTDDTAMYYCARVGYGNSFANWGQGTLVTVSA VL: DIVMTQSPSSLTVTAGEKVTLSCKSSQTLLNSGNQKNYLTWYQQKPGQPPKLLIYWASTRESGVPDRFTGSGSGTDFTLTISSVQAEDLAVYYCQNNYFYPLTFGAGTRLEIK
[A] 0.16

[Q] So what's the measured log10 EC50 for this one? 13A8 (antibody, V domains shown, also called Clone 13A8) VH: EVKLVESGGGLVRPGGSLKVSCAASGITFSRYAISWVRQTPEKRLEWVATISSGDSYTYYLDSVKGRFTISRDDAKNTLYLQMSSLRSEDTAMYYCGRLGYGNAMDYWGQGTSVTVSS VL: NIMMTQSPSSLTVTAGEKVTMSCKSSQSLLNSGNQKNYLTWYQQKPGQPPKLLIYWASTRESGVPDRFTGSGSGTDFTLTISSVQAEDLAVYYCQNDYSYPLTFGAGTKLEIK
[A] -0.60

[Q] So what's the measured log10 EC50 for this one? 15A7 (antibody, V domains shown, also called Clone 15A7) VH: QVQLQQSGAELVKPGYSVKLSCKASGYTFTNFGINWVRQRPEKGLEWIGWIFPGDGTTKYNENFKGKATLTTDKSSSTAYMQLSRLTSEDSAVYFCARFYYGNSFVNWGQGTLVTVSA VL: DIVMTQSPSSLTVTAGEKVTLSCKSSQTLLNSGNQKNYLTWYQQKPGQPPKLLIHWASTRESGVPDRFTGSGSGTDFTLTISSVQAEDLAVYYCQNNYFYPLTFGAGTKLEIK
[A] -0.23

[Q] So what's the measured log10 EC50 for this one? 15F9 (antibody, V domains shown, also called Clone 15F9; 15F9 Chimera) VH: EIQLVQSGPELKKPGETVKISCKASGYTFTNYGINWVKQAPGKGLKWMGWINPNTGETTYAEEFKGRFALSWKTSASTAYLQINNLKNEDTATYFCARLYYGNRFDYWGQGTTLTVSS VL: DIVMTQSPSSLTVTAGEKVTMSCKSSQSLLNSGNQRNYLTWYQQKPGQPPKLLIYWASTRESGVPDRFTGSGSGTDFTLTISSVQAEDLAVYYCQNAYYYPLTFGAGTKLEIK
[A] -0.77

[Q] So what's the measured log10 EC50 for this one? 25F5 (antibody, V domains shown, also called Clone 25F5) VH: QVQLKQSGAELVKPGASLKLSCKASGYTFTTYGINWVRQRPEQGLEWIGWIFPGDATTMYNEKFKGTATLTADKSSSTAYMQLSGLTSEDSAVYFCARFYYGNSFVDWGQGTLVTVSA VL: DIVMTQSPSSLTVTAGEKVTMSCKSSQSLLNSGNQKNYLTWYQQKPGQPPKLLIYWASTRESGVPDRFTGSGSGTDFTLTISSVQAEDLAVYYCQNAYYYPLTFGAGTKLEIK
[A] 0.33
